target: HDAC1 (Homo sapiens); experiment: In vitro HDAC inhibition preincubation assay (ZMAL substrate)
measured_metric: pIC50
Scale explanation: pIC50 corresponds to minus log10 of a concentration expressed in moles per litre.

Query: Could you tell me which pIC50 is on file for `CC(=O)Nc1ccc(C(=O)Nc2cc(-c3ccc(F)cc3)ccc2N)cc1` ?
Response: 8.36

Query: Item under review: CN(C)c1ccc(C(=O)N(CC(=O)NCc2ccccc2)Cc2ccc(C(=O)Nc3ccccc3N)cc2)cc1 [VK‐1, reference compound] . Reported pIC50?
Response: 7.16

Query: Consider the compound `CC(=O)Nc1ccc(C(=O)Nc2cc(-c3ccnc(F)c3)ccc2N)cc1` and give its measured pIC50.
Response: 6.48

Query: # query: pIC50 of entry `CC(=O)Nc1ccc(C(=O)Nc2cc(-c3ccccn3)ccc2N)cc1`
Response: 6.68

Query: Report pIC50 for `CC(=O)Nc1ccc(C(=O)Nc2cc(-c3ccccc3)ccc2N)cc1` please.
Response: 8.35

###

target: HDAC1 (Homo sapiens, UniProt Q13547); assay: IC50-shift experiments (varied preincubation time); assay type: biochemical; conditions: HDAC1 IC50, preincubation 60 min, preincubation time 60 min at 20°C; triplicates
Sequence (Q13547 whole entry): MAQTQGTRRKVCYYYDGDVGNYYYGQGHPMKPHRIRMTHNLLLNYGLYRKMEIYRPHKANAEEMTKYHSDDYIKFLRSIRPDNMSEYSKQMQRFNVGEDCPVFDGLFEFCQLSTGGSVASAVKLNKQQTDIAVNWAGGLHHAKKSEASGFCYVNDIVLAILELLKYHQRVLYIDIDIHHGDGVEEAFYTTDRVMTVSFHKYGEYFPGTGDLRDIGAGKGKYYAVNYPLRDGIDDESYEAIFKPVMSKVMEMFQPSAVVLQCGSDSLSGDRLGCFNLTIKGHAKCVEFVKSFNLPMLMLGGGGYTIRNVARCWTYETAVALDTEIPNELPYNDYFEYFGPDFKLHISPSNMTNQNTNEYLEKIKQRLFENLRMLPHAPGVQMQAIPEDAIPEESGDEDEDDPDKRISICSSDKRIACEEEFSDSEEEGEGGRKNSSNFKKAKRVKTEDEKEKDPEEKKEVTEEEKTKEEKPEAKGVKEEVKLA
I'd be grateful if you could share measured pIC50 for these entries.
Please note pIC50 is a logarithmic value: minus log10 of concentration in mol/L. Answer with that number alone.

Query: // query pIC50 value for entry CN(C)c1ccc(C(=O)N(CC(=O)NCc2ccccc2)Cc2ccc(C(=O)Nc3ccccc3N)cc2)cc1 [VK‐1, reference compound]
Response: 7.32

Query: Recorded pIC50 of `CC(=O)Nc1ccc(C(=O)Nc2cc(-c3ccncc3)ccc2N)cc1` , please.
Response: 7.39

###

experiment: physchem; conditions: 1-octanol/PBS buffer (mutually saturated), pH 7.4
measured_metric: logD at 48 h
Please give only the number in your answer, with no unit.

Query: # logD at 48 h lookup, item CN(C)c1ccc(C(=O)N(CC(=O)NCc2ccccc2)Cc2ccc(C(=O)Nc3ccccc3N)cc2)cc1 [VK‐1, reference compound]
Response: 3.19

###

target: HDAC3/NcoR2 (Homo sapiens, UniProt O15379); test: In vitro HDAC inhibition preincubation assay (ZMAL substrate)
Sequence (O15379 whole entry): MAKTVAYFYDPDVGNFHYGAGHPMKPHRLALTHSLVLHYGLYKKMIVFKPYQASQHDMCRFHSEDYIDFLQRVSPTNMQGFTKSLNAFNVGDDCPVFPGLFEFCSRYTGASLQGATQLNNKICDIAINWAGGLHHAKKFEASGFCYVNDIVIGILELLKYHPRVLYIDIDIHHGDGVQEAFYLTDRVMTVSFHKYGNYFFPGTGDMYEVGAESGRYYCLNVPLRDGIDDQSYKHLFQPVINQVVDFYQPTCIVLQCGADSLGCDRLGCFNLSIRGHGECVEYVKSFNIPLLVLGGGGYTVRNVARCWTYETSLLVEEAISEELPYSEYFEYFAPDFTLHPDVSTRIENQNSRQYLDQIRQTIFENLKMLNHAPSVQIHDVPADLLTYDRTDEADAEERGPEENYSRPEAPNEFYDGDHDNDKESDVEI
Sequence (Q9Y618 395-489 partner limits assumed): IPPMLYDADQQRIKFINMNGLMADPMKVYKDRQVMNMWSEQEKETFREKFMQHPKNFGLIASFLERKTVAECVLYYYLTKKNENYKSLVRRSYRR
measured_metric: pIC50
Please report pIC50 as the negative decimal logarithm of the molar concentration, giving only the number.

Query: Can you look up pIC50 on HDAC3/NcoR2 (Homo sapiens, UniProt O15379) for CC(=O)Nc1ccc(C(=O)Nc2cc(-c3ccnc(F)c3)ccc2N)cc1 [6 i] ?
Response: 5.23

Query: Hello, I am looking for reported pIC50 with HDAC3/NcoR2 (Homo sapiens, UniProt O15379) for CC(=O)Nc1ccc(C(=O)Nc2cc(-c3ccccn3)ccc2N)cc1 [6 f] . Could you help?
Response: 4.76

Query: Notebook entry, HDAC3/NcoR2 (Homo sapiens, UniProt O15379) assay: pIC50 of CC(=O)Nc1ccc(C(=O)Nc2cc(-c3cccnc3F)ccc2N)cc1 [6 h] = ?
Response: 5.54

Query: Query for HDAC3/NcoR2 (Homo sapiens, UniProt O15379): what pIC50 does the record show for CC(=O)Nc1ccc(C(=O)Nc2cc(-c3ccccc3)ccc2N)cc1 [6 a] ?
Response: 5.40

###

Kindly state pIC50 for each of the entries shown.
biological target: HDAC2 (Homo sapiens); assay: In vitro HDAC inhibition preincubation assay (ZMAL substrate)
Sequence (Q92769 whole entry): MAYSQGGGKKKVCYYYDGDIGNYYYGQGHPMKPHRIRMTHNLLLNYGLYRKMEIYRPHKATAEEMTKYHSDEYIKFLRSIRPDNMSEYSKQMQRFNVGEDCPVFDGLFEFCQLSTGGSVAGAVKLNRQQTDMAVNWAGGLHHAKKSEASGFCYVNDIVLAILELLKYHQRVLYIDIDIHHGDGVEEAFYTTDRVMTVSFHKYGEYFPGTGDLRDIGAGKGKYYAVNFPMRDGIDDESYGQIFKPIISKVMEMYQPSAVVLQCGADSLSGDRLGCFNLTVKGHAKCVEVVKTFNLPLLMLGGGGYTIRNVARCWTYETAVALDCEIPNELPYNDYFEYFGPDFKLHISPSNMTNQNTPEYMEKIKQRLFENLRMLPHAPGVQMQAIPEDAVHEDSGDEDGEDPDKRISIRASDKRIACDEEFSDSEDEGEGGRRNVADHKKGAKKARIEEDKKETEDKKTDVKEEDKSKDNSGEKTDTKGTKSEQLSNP
FYI, pIC50 means -log10 of a concentration in mol per litre.

Query: Please provide the recorded pIC50 for `CC(=O)Nc1ccc(C(=O)Nc2cc(-c3cccnc3F)ccc2N)cc1` , tested on HDAC2 (Homo sapiens).
Response: 6.64

Query: Param readout= pIC50; system= HDAC2 (Homo sapiens); entry= `CC(=O)Nc1ccc(C(=O)Nc2cc(-c3ccccn3)ccc2N)cc1` ; returns value.
Response: 6.48

Query: Please tell me: pIC50 of `CN(C)c1ccc(C(=O)N(CC(=O)NC2CCCCC2)Cc2ccc(C(=O)Nc3cc(-c4ccncc4)ccc3N)cc2)cc1` , system HDAC2 (Homo sapiens)?
Response: 7.07

Query: I'm curious: which pIC50 was measured for `CN(C)c1ccc(C(=O)N(CC(=O)NC(C)(C)C)Cc2ccc(C(=O)Nc3cc(-c4ccncc4)ccc3N)cc2)cc1` tested on HDAC2 (Homo sapiens)?
Response: 7.23

Query: Fill in the recorded pIC50 for this compound, with HDAC2 (Homo sapiens) as test system: CN(C)c1ccc(C(=O)N(CC(=O)NCc2ccccc2)Cc2ccc(C(=O)Nc3ccccc3N)cc2)cc1 [VK‐1, reference compound]
Response: 6.89

Query: Lab request: please report pIC50 under test system HDAC2 (Homo sapiens) for `CC(=O)Nc1ccc(C(=O)Nc2cc(-c3ccc(F)cc3)ccc2N)cc1`
Response: 7.35

Query: Fill in the recorded pIC50 for this compound, with HDAC2 (Homo sapiens) as test system: `CC(=O)Nc1ccc(C(=O)Nc2cc(-c3cccnc3)ccc2N)cc1`
Response: 7.00
